Assay: Solubility in ddIH2O
Type: physicochemical
Settings: ddIH2O (double-deionized water)
Reported solubility by item:

structure_as_smiles=Cl.Cl.NCCCOc1cc2ccccc2cc1C(=O)Oc1cc(Cl)ccc1NC(=O)c1cc2ccccc2cc1OCCN reported_value="> 100 mg/mL"

Then there is this compound:
Ask: Returns the measured solubility for the input compound. Input: "Cl.NCCCOc1cc2ccccc2cc1C(=O)NCCOc1cc2ccccc2cc1C(=O)Nc1ccc(Cl)cc1O"
Reply: < 0.5 mg/mL
